- system name: truncated wild type VvCYP51 (Ustilaginoidea virens (Villosiclava virens))
- Sequence (X2GGV8 29-528): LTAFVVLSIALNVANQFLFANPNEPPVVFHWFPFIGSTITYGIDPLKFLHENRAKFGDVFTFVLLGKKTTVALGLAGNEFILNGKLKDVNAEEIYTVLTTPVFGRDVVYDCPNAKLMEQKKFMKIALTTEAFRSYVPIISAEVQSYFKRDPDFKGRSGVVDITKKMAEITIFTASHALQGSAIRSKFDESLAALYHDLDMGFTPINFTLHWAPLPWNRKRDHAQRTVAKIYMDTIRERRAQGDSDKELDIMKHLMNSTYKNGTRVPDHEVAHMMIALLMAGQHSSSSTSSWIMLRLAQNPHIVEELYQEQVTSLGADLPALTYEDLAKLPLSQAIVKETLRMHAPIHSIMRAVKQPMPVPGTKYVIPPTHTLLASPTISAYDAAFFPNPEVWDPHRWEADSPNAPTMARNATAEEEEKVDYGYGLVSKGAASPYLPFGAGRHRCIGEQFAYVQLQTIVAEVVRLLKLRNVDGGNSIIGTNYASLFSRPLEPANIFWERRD
- experimental protocol: UV-visible spectral binding assay, truncated wild type protein
- cond: bound for the three different truncated wild type VvCYP51 proteins; read-out: Kd values
pKd: −log10 of the molar value.
measured metric: pKd

>>> recorded_measurement("CC(C)(C)C(O)(CCc1ccc(Cl)cc1)Cn1cncn1 (stereo not shown) [tebuconazole]")
"> 7.40"

* * *

- system name: truncated wild type VvCYP51 (Ustilaginoidea virens (Villosiclava virens), UniProt X2GGV8)
- experimental protocol: UV-visible spectral binding assay, truncated wild type protein
- cond: wild type VvCYP51, −42aa N-terminal truncation; read-out: Kd
pKd: −log10 of the molar value.
measured metric: pKd

>>> recorded_measurement("CC(C)(C)C(O)(CCc1ccc(Cl)cc1)Cn1cncn1 (stereo not shown) [tebuconazole]")
7.47

* * *

- system name: truncated wild type VvCYP51 (Ustilaginoidea virens (Villosiclava virens))
- experimental protocol: UV-visible spectral binding assay, truncated wild type protein
- cond: wild type VvCYP51, −74aa N-terminal truncation; read-out: Kd
pKd: −log10 of the molar value.
measured metric: pKd

>>> recorded_measurement("CC(C)(C)C(O)(CCc1ccc(Cl)cc1)Cn1cncn1 (stereo not shown)")
7.43
